System: SB.msgc-1
Test: area under the dose-response curve of % viability (trapezoidal, 11 doses) (% viability x log10 concentration); higher = less cytotoxic
Settings: SB.msgc-1 (sporadic gastric cancer)
measure: area under the dose-response curve
# answer = number (no unit)

What does the data say about its area under the dose-response curve? Entry: COc1cc(O)c2c(c1)C(=O)c1cc(C)cc(O)c1C2=O [Parietin] (top concentration 23.0415 µM)
559

Similarly, COC(=O)C1=C(C)NC(C)=C(C(=O)OCCN2CCN(C(c3ccccc3)c3ccccc3)CC2)C1c1cccc([N+](=O)[O-])c1.Cl.Cl (centres undefined) [Manidipine] (top concentration 46.0829 µM) ?
484

Would you mind doing Cc1ccc(Nc2nccc(N(C)c3ccc4c(C)n(C)nc4c3)n2)cc1[S+](N)(=O)[O-] [Pazopanib] (top concentration 46.0829 µM) as well?
478

Moving on to the next molecule: Nc1nc2ccc(OC(F)(F)F)cc2s1 [Riluzole] (top concentration 46.0829 µM)
508

###

Tested on: SB.msgc-1
Experiment: viability at highest tested concentration (MAXR) relative to DMSO; higher = less cytotoxic
Conditions: SB.msgc-1 (sporadic gastric cancer)
Where a name gives a salt, the structure may show the parent alone.
Threshold check on viability: strictly below 60% is yes; on or above 60% is no.

viability under 60%? Item: C/C=C(/C)C(=O)O[C@H]1C(C)=C2[C@H]([C@@H]1OC(=O)CCCCCCC)[C@@](C)(OC(C)=O)C[C@H](OC(=O)CCC)[C@@]1(O)[C@H]2OC(=O)[C@@]1(C)O [Thapsigargin] (top concentration 46.0829 µM)
yes

Entry to check: C[C@H](NC(=O)Cc1cc(F)cc(F)c1)C(=O)N[C@H](C(=O)OC(C)(C)C)c1ccccc1 [GSI-9] (top concentration 46.0829 µM)
no

Now the compound NC/1=N/C(=O)N(/C=C1)[C@H]2CC[C@@H](CO)O2 [Zalcitabine] (top concentration 46.0829 µM)
yes

Again, but for COc1ccc(F)c(F)c1C(=O)c1cnc(NC2CCN([S+](C)(=O)[O-])CC2)nc1N [R-547] (top concentration 46.0829 µM)
yes

Same again, this time with CNc1nccc(-c2cccnc2Oc2cc(C(=O)Nc3cccc(C(F)(F)F)c3)ccc2C)n1 [AMG-Tie2-1] (top concentration 46.0829 µM)
yes

Ok, now N\C1=N\C2=C(N=C[N]2COC(CO)CO)C(=O)N1 [Ganciclovir] (top concentration 46.0829 µM)
yes

Then Cc1nccn1CC1CCc2c(c3ccccc3n2C)C1=O (configuration not stated) [Ondansetron hydrochloride] (top concentration 46.0829 µM) ?
no

For OC[C@H]1OCC(O1)[N@@]2C=CC(N)=NC2=O (some centres not stated) [Troxacitabine] (top concentration 46.0829 µM) then?
no

Please answer likewise for Clc1ccc(-c2nc3sccn3c2/C=N/OCc2ccc(Cl)c(Cl)c2)cc1 [CITCO] (top concentration 46.0829 µM)
yes

Query N#Cc1ccc(C(c2ccc(C#N)cc2)n2cncn2)cc1 [Letrozole] (top concentration 46.0829 µM) next
no

###

System: SB.mhdgc-1
Assay: area under the dose-response curve of % viability (trapezoidal, 11 doses) (% viability x log10 concentration); higher = less cytotoxic
Conditions: SB.mhdgc-1 (hereditary c.1380delA CDH1 gastric cancer)
Please go through the items and note down their area under the dose-response curve.
A bare number is all that is needed in reply.

Any idea what its area under the dose-response curve is? The compound is CC1(C)S[C@H]2[C@H](NC(=O)[C@@H](N)C3=CC=C(O)C=C3)C(=O)[N@]2[C@H]1C(O)=O [Amoxicillin sodium] (top concentration 46.0829 µM)
460

Here is the next compound: C[C@]1(c2nc3c(C(N)=O)cccc3[nH]2)CCCN1 [Veliparib] (top concentration 46.0829 µM)
404

Would you mind doing C/C=C(/C)C(=O)O[C@H]1C(C)=C[C@]23C(=O)[C@@H](C=C(CO)[C@@H](O)[C@]12O)[C@H]1[C@@H](C[C@H]3C)C1(C)C [Ingenol mebutate] (top concentration 46.0829 µM) as well?
433

Could you do the same for COC(=O)Nc1nc2cc(C(=O)c3ccccc3)ccc2[nH]1 [Mebendazole] (top concentration 46.0829 µM) , please?
391

Also N\C1=N\C2=C(N=C[N]2COCCO)C(=O)N1 [Aciclovir] (top concentration 46.0829 µM) ?
413

// same read-out, input: OC[C@H]1OC(O)C[C@@H](O)[C@@H]1O (some centres not stated) [2-Deoxyglucose] (top concentration 46.0829 µM)
520

Now this one: COc1cc(F)c(C(C)C)cc1-c1ccc(C(F)(F)F)cc1CN1C(=O)O[C@H](c2cc(C(F)(F)F)cc(C(F)(F)F)c2)[C@@H]1C [Anacetrapib] (top concentration 46.0829 µM)
470

Then this compound: Cn1c(CCCC(=O)O)nc2cc(N(CCCl)CCCl)ccc21 [Bendamustine] (top concentration 46.0829 µM)
542

What do we get for Cc1nc(N)ncc1-c1nc(N2CCOCC2)c2sc(C(C)(C)O)cc2n1 [GNE-490] (top concentration 46.0829 µM) ?
344

Consider next the compound CCOC(=O)C/1=C(O)/C(=O)N(CC2=CC=CC=C2)C1 [EBPC] (top concentration 46.0829 µM) in the same way.
534

Same thing, different compound: CNC1CCC(N(Cc2cccc(-c3ccncc3)c2)C(=O)c2sc3ccccc3c2Cl)CC1 (configuration not stated) [SAG] (top concentration 46.0829 µM)
470

// query: CC(=O)Oc1cc2c(s1)CCN(C(C(=O)C1CC1)c1ccccc1F)C2.Cl (configuration not stated) [Prasugrel] (top concentration 46.0829 µM)
417

###

Test system: SB.mhdgc-1
Assay: area under the dose-response curve of % viability (trapezoidal, 11 doses) (% viability x log10 concentration); higher = less cytotoxic
Conditions: SB.mhdgc-1 (hereditary c.1380delA CDH1 gastric cancer)
Structures can show the parent of a compound that is named as a salt.
measure: area under the dose-response curve
No unit in the answer, only the number.

Fill in the blank: the reported area under the dose-response curve of COC1=CC(=CC=C1)C2=CC=C(NC(=O)/C3=C(/CCC3)C(O)=O)C(=C2)F [Vidofludimus] (top concentration 46.0829 µM) is ____.
445

Let us now turn to NC/1=N/C(=O)N/C=C1F [Flucytosine] (top concentration 46.0829 µM)
495

Cool, now CO/N=C(/C(=O)N[C@@H]1C(=O)N2C(C(=O)O)=C(Cn3ccc(=N)n3CCO)CS[C@H]12)c1csc(N)n1 [Cefoselis sulfate] (top concentration 46.0829 µM)
479

Same read-out for O=C(NOC[C@H](O)CO)c1ccc(F)c(F)c1Nc1ccc(I)cc1F (top concentration 46.0829 µM) ?
364

Also O=C(O)C1CCCN(CCC=C(c2ccccc2)c2ccccc2)C1 (stereo unspecified) (top concentration 46.0829 µM) ?
506

// query: Nc1ncnc2c1c(-c1cccc(OCc3ccccc3)c1)cn2C1CC(CN2CCC2)C1 (stereo unspecified) [NVP-AEW541] (top concentration 46.0829 µM)
482

###

Test system: SB.mhdgc-1
Test: area under the dose-response curve of % viability (trapezoidal, 11 doses) (% viability x log10 concentration); higher = less cytotoxic
Conditions: SB.mhdgc-1 (hereditary c.1380delA CDH1 gastric cancer)
Kindly supply the reported area under the dose-response curve values for the records listed here.

# lookup: area under the dose-response curve of OC1=CC=C(C=C1)\C2=C(O)\C(=O)C3=C(O2)C=C(O)C=C3O [Kaempferol] (top concentration 46.0829 µM)
465

What about this molecule? O=C(NCC[S+](=O)([O-])c1ccc(C(F)(F)F)cn1)c1ccc(Cl)cc1 [GSK-3787] (top concentration 46.0829 µM)
516

Here is the next molecule: S=C(NCc1ccc2c(c1)OCO2)N1CCN(c2ncnc3c2oc2ccccc23)CC1 [Amuvatinib] (top concentration 92.1659 µM)
472

Another molecule to check: NC/1=N/C(=O)N(C[C@@H](CO)OC[P](O)(O)=O)/C=C1 [Cidofovir] (top concentration 23.0415 µM)
570

Can you check NC1(c2ccc(-c3nc4ccn5c(=O)[nH]nc5c4cc3-c3ccccc3)cc2)CCC1 [MK-2206] (top concentration 46.0829 µM) next?
370

Entry to check: O=C(c1ccc(F)cc1)C1CCN(CCn2c(=O)[nH]c3ccccc3c2=O)CC1 [Ketanserin] (top concentration 46.0829 µM)
536

###

System: SB.msgc-1
Test: area under the dose-response curve of % viability (trapezoidal, 11 doses) (% viability x log10 concentration); higher = less cytotoxic
Details: SB.msgc-1 (sporadic gastric cancer)
Returns one of true or false; true when area under the dose-response curve is >= 500.

Check if area under the dose-response curve >= 500 (inclusive). Item: Cn1cnc(N)c2ncnc1-2 [3-Methyladenine] (top concentration 46.0829 µM)
false

Please give the result for N#Cc1ccc(COC[C@H]2O[C@@H](n3c(NCc4ccc(Cl)c(Cl)c4)nc4c(N)ncnc43)[C@H](O)[C@@H]2O)cc1 (top concentration 46.0829 µM) too.
false

Repeat with CC(C)OC(=O)CCC/C=C\C[C@@H]1[C@@H](/C=C/[C@@H](O)COc2cccc(C(F)(F)F)c2)[C@H](O)C[C@@H]1O [Travoprost] (top concentration 46.0829 µM)
true

What would you report for CCOC(=O)c1cncn1[C@H](C)c1ccccc1 [Etomidate] (top concentration 46.0829 µM) ?
true

Reference for the values: the supplement of paper PMC5412046
